IC50 by entry:
# SYSTEM TESTED: human EP4 receptor (hEP4) (Homo sapiens, UniProt P35408)
# Construct: plasma membrane fraction
# Sequence (P35408 whole entry): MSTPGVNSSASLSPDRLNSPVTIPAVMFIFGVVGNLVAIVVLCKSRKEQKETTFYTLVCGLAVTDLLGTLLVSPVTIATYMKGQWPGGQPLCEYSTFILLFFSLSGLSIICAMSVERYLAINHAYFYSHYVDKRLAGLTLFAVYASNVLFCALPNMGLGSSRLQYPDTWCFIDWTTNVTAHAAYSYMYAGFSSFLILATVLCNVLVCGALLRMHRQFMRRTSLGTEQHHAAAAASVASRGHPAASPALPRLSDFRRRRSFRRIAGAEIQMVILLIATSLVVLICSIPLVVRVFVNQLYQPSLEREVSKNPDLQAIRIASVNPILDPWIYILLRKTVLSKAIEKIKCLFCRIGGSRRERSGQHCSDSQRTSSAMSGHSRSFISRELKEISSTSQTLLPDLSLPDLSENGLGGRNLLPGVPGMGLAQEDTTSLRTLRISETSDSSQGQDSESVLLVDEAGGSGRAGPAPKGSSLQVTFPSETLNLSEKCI
# ASSAY: Radioligand binding competition vs [3H]PGE2, human recombinant EP4 receptor
# ASSAY SETUP: [3H]PGE2 competition, plasma membranes of HEK-293 stable transfectants, 60 min 25° C.
VALUE TYPE: IC50

| MOLECULE | VALUE TYPE | VAL |
| --- | --- | --- |
| CC(O)(/C=C/[C@H]1[C@H](O)CC(=O)[C@@H]1SCCCSCC(=O)O)CCc1ccc2ccccc2c1 (stereo partly drawn) [Example 28L] | IC50 | 1.5 µM |
| COC(=O)CSCCCS[C@H]1C(=O)C[C@@H](O)[C@@H]1/C=C/C(C)(O)CCc1ccc2ccccc2c1 (single isomer, unassigned) [Example 27H] | IC50 | 0.5 µM |
| O=C(O)CSCCCS[C@H]1C(=O)C[C@@H](O)[C@@H]1/C=C/C(O)Cc1csc2ccccc12 (single isomer, unassigned) [Example 25L] | IC50 | 0.005 µM |
